Tested on: HCT-15 colon
Experiment: NCI-60 one-dose screen, 48 h (100 = growth as untreated, 0 = no growth, -100 = all killed)
Conditions: 10 µM unless noted
Protocol: Growth inhibition of the HCT-15 human tumor cell line is measured as a screen for anti-cancer activity. Cells are grown in 96 well plates and exposed to the test compound for 48 hours. Compounds are tested at a single concentration, which is 10^-5 M for most compounds. The reported endpoint is percent growth (GI% or GIPRCNT), where numbers from 0 - 100% represent growth inhibition, and numbers from -100% - 0 represent cell death. For example, a value of 40 represents 60% growth inhibition. […]
This is part of a sample that, as a whole, favours compounds with a hit. Of some 83,000 tested, about 20% had one in any assay.
// Not satisfied strictly below 20% in growth; Satisfied otherwise

Some entries whose results are on file:
# Compound, Tested on, Class assignment
rows = [
    ("Cn1ccc2c1CC1CN(Cc3ccco3)C(=O)C1C2C(=O)O (centres undefined)", "HCT-15 colon", "Satisfied"),
    ("COc1cc2c(c(O)c1Br)C(=O)c1c(O)cc(C[C@H](C)O)cc1[C@H]2[C@H]1c2cc(C[C@H](C)O)cc(O)c2C(=O)c2c1cc(OC)c(Br)c2O", "HCT-15 colon", "Not satisfied"),
    ("CCN(CC)c1ccc(/C=N/NC(=O)CSc2nc3ccccc3c(=O)n2Cc2ccc(S(N)(=O)=O)cc2)c(O)c1", "HCT-15 colon", "Satisfied"),
    ("N#Cc1c(NCc2ccccc2I)sc2c1CCCCC2", "HCT-15 colon", "Satisfied"),
    ("Cc1nnc2c(Cc3ccccc3)nc3ccccc3n12", "HCT-15 colon", "Satisfied"),
    ("COc1ccc(OC)c(-c2cc(-c3ccc(Cl)cc3)c3c(N)c(C(=O)c4ccc(Cl)cc4)sc3n2)c1", "HCT-15 colon", "Satisfied"),
    ("CN1CCN(c2ccc(NC3=C(Cl)C(=O)c4ncccc4C3=O)cc2C(F)(F)F)CC1", "HCT-15 colon", "Not satisfied"),
    ("NC(=NCCCOc1ccc(F)cc1)Nc1ccc(I)cc1", "HCT-15 colon", "Satisfied"),
    ("Cc1ccc(/C=N/NC(=O)CSc2nc3ccccc3c(=O)n2Cc2ccc(S(N)(=O)=O)cc2)cc1", "HCT-15 colon", "Satisfied"),
    ("Nc1c(S(=O)(=O)O)cc2c3c(cccc13)C(=O)OC2=O", "HCT-15 colon", "Satisfied"),
]

Q. Confirm if growth reported for the compound COc1ccc(/C=C/c2nc(Nc3ccc(S(=O)(=O)Nc4cc(C)on4)cc3)c3ccccc3n2)cc1 is 20% or above.
A. Satisfied

Q. Further, for CCOC(=O)c1cc(C(=O)c2ccc(OC)c(OC)c2)n2c1ccc1ccccc12 ?
A. Satisfied

Q. Further, for O=C(CCN1CCCC1)Nc1ccc2c(Nc3ccc(Br)cc3)c3ccccc3nc2c1 ?
A. Not satisfied

Q. Further, for CNCCOc1nc2c3cnccc3cc(-c3cc(OC)c(OC)c(OC)c3)c2c2ccncc12 ?
A. Not satisfied

Q. Further, for Nc1n[nH]c2cccc(C#Cc3cccc(C(=O)Nc4cccc(C(F)(F)F)c4)c3)c12 ?
A. Satisfied

Q. Further, for N#Cc1c(-c2cccc([N+](=O)[O-])c2)nc(SCC(=O)c2ccc(Cl)cc2)[nH]c1=O ?
A. Satisfied

Q. Further, for CC(=O)Nc1ccc(-n2cnc3cc(-c4ccc(OCCN5CCCCC5)cc4)ccc32)cc1 ?
A. Satisfied

Q. Further, for c1ccc2cc(Cn3c(-c4cccc5ccccc45)[n+](Cc4ccc5ccccc5c4)c4c5ccccc5c5ccccc5c43)ccc2c1 ?
A. Not satisfied

Q. Further, for COc1cc(/C=N/NC(=O)c2cnn3c2NC(c2ccccc2)C3)ccc1Oc1ccccc1 (centres undefined) ?
A. Not satisfied
